Give measured IC50 for each item. Keep answers brief.
# target_or_test_system: NF-κB (Homo sapiens, UniProt P19838+Q04206)
# Sequence (Q04206 whole entry): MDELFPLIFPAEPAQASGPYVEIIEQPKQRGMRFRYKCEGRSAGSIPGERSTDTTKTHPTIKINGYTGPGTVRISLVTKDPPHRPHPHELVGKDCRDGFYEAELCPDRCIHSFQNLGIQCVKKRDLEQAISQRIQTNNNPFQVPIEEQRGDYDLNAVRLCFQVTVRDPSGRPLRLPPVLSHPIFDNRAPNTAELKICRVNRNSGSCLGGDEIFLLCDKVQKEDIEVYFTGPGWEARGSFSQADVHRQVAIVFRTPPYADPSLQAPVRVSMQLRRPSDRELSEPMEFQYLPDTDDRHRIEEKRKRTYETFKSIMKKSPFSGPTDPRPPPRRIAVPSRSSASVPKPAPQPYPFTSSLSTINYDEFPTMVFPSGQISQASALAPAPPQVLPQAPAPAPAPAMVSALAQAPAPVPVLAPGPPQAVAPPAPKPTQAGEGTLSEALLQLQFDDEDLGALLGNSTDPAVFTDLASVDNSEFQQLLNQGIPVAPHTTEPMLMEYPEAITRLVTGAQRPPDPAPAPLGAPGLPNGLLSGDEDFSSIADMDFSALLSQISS
# Sequence (P19838 1-433 limits assumed): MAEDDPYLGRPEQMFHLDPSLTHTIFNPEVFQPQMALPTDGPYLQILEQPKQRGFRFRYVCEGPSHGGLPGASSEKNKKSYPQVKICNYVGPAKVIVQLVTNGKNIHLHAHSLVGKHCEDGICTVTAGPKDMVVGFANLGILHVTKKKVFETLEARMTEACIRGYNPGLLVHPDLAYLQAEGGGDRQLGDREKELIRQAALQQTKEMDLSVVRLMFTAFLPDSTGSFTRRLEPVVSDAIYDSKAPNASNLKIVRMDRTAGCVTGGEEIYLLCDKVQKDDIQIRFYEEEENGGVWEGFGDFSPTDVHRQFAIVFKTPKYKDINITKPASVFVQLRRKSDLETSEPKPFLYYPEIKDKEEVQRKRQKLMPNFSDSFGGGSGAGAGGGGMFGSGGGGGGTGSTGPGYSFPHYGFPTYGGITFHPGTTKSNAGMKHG
# test_name: IC50 values in Mammalian Jurkat cells Leukemia T cells
# settings: concentration at which 50% of the protein/enzyme is inhibited in cells
Give bare numbers, in nM.

# compound, quantity, data_value
measured = [
    ("C[C@]1(C(=O)O)N=C(c2ccccc2)N[C@H]1c1ccccc1 (racemic)", "IC50", 20),
    ("O=C(O)[C@@]1(c2ccccc2)N=C(c2ccccc2)N(Cc2ccccc2)[C@H]1c1ccccc1 (racemic)", "IC50", 73),
    ("C[C@]1(C(=O)O)N=C(c2ccccc2)N(Cc2ccccc2)[C@H]1c1ccccc1 (racemic)", "IC50", 1950),
    ("COc1ccc([C@@H]2N(Cc3ccccc3)C(c3ccccc3)=N[C@]2(C)C(=O)O)cc1 (racemic)", "IC50", 40),
    ("C[C@]1(C(=O)O)N=C(c2ccccc2)N(c2ccc(F)cc2)[C@H]1c1ccccc1 (racemic)", "IC50", 6.5),
]

QUERY: Give the reported IC50 for C[C@]1(C(=O)O)N=C(c2ccccc2)N(Cc2ccccc2)[C@H]1c1ccncc1 (racemic) (system: NF-κB (Homo sapiens, UniProt P19838+Q04206)).
RESULT: 300

Every entry's value here was drawn from patent US7345078B2.
